All figures here come from patent US10231956B2.

# Test system: SW480 colon cancer cells
# Test Summary: Cell viability assay (CellTiter-Blue) in SW480 colon cancer cells
# Format: cell-based
# Details: Homo sapiens, 96 h, four days, CellTiter-Blue
pEC50: −log10 of the molar value.
Assay Readout: pEC50

Here's what some known entries look like.
Mol: CC(C)CC(=O)Nc1cncc(-c2ccc3[nH]nc(-c4cc5c(-c6cc(F)cc(CNS(C)(=O)=O)c6)nccc5[nH]4)c3n2)c1
Readout Value: 6.04

Mol: CS(=O)(=O)NCc1cc(F)cc(-c2nccc3[nH]c(-c4n[nH]c5ccc(-c6cncc(NC(=O)C7CCCC7)c6)nc45)cc23)c1
Readout Value: 5.70

P = Fc1ccc(-c2nccc3[nH]c(-c4n[nH]c5ccc(-c6ccccn6)nc45)cc23)cc1
Q = O=C(Nc1cncc(-c2ccc3[nH]nc(-c4cc5c(-c6ccc(F)cc6)nccc5[nH]4)c3n2)c1)c1ccccc1
R = CS(=O)(=O)NCc1cc(F)cc(-c2nccc3[nH]c(-c4n[nH]c5ccc(-c6cncc(CN7CCC(F)(F)C7)c6)nc45)cc23)c1
## Task Ascending by pEC50, please. Respond with an ordered listing of the labels, as requested.
## Result P, R, Q

---

Documented pEC50 across a set of compounds
# Tested on: primary human fibroblasts derived from IPF patients (LL29 cells)
# Test Summary: Inhibition of fibrotic process: αSMA staining in TGF-β1 treated LL29 fibroblasts
# Format: cell-based
# Details: Fibroblast, 96 h, TGF-β1 20 ng/mL, 4 days, % cells positive for αSMA
Friendly reminder that pEC50 comes from taking -log10 of the concentration in mol/L.

Recorded pEC50, per entry:
Mol: CN1CCN(c2nccc3[nH]c(-c4n[nH]c5ccc(-c6cncc(NC(=O)c7ccccc7)c6)nc45)cc23)CC1
pEC50: 5.65
//
Mol: CN(C)Cc1cncc(-c2ccc3[nH]nc(-c4cc5c(-c6ccccc6F)nccc5[nH]4)c3n2)c1
pEC50: 6.20

## Task Please report the recorded pEC50 for c1cc2[nH]c(-c3n[nH]c4ccc(-c5cncc(CNCC6CCCC6)c5)nc34)cc2c(-c2ccoc2)n1 .
## Result 6.15

## Task What value of measured pEC50 is listed for CC(C)CC(=O)Nc1cncc(-c2ccc3[nH]nc(-c4cc5c(-c6ccccc6F)nccc5[nH]4)c3n2)c1 ?
## Result 6.43

## Task Data request, read-out pEC50, for O=C(Nc1cncc(-c2ccc3[nH]nc(-c4cc5c(-c6ccccc6F)nccc5[nH]4)c3n2)c1)C1CC1
## Result 5.45

## Task // pEC50 lookup, key: FC1(F)CCN(Cc2cncc(-c3ccc4[nH]nc(-c5cc6c(N7CCCCC7)nccc6[nH]5)c4n3)c2)C1
## Result 5.99

## Task Endpoint output: pEC50 of CC(C)CC(=O)Nc1cncc(-c2ccc3[nH]nc(-c4cc5c(-c6cc(F)cc(CNS(C)(=O)=O)c6)nccc5[nH]4)c3n2)c1 . Value?
## Result 5.24

## Task Need pEC50 of CN1CCN(c2nccc3[nH]c(-c4n[nH]c5ccc(-c6cncnc6)nc45)cc23)CC1 , thanks.
## Result 5.86

## Task Given O=C(Nc1cncc(-c2ccc3[nH]nc(-c4cc5c(-c6cccc(F)c6)nccc5[nH]4)c3n2)c1)C1CCCCC1 , state its recorded pEC50.
## Result 6.33

## Task Form field: reported pEC50 of CS(=O)(=O)NCc1cc(F)cc(-c2nccc3[nH]c(-c4n[nH]c5ccc(-c6ccccn6)nc45)cc23)c1
## Result 5.71

## Task Which value of pEC50 has been reported for CN(C)Cc1cncc(-c2ccc3[nH]nc(-c4cc5c(N6CCCCC6)nccc5[nH]4)c3n2)c1 in the records?
## Result 5.80

## Task // returns reported pEC50 for input CN1CCN(c2nccc3[nH]c(-c4n[nH]c5ccc(-c6cncc(NC(=O)CC(C)(C)C)c6)nc45)cc23)CC1
## Result 6.00

## Task Look at this compound and give its reported pEC50. Fc1ccccc1-c1nccc2[nH]c(-c3n[nH]c4ccc(-c5cncc(CNCc6ccccc6)c5)nc34)cc12
## Result 5.78

## Task # pEC50 lookup, item Fc1cccc(-c2nccc3[nH]c(-c4n[nH]c5ccc(-c6cncc(CN7CCCCC7)c6)nc45)cc23)c1
## Result 6.26

---

# System: primary human fibroblasts derived from IPF patients (LL29 cells)
# Test Summary: Inhibition of fibrotic process: αSMA staining in TGF-β1 treated LL29 fibroblasts
# Assay type: cell-based
# Details: Fibroblast, 96 h, TGF-β1 20 ng/mL, 4 days, % cells positive for αSMA
Measured EC50 accompanies every entry in the list below.
Give the value in nM but do not write nM after it.

Molecule: c1cncc(-c2ccc3[nH]nc(-c4cc5c(N6CCCCC6)nccc5[nH]4)c3n2)c1 [Compound 172]
Readout Value: 89
--
Molecule: c1cc2[nH]c(-c3n[nH]c4ccc(-c5cncc(OC6CCCCC6)c5)nc34)cc2c(-c2ccoc2)n1 [Compound 687]
Readout Value: 452
--
Molecule: Nc1cncc(-c2ccc3[nH]nc(-c4cc5c(-c6ccncc6)nccc5[nH]4)c3n2)c1 [Compound 115]
Readout Value: 436

## Task Looking for the measured EC50 of Fc1cccc(-c2nccc3[nH]c(-c4n[nH]c5ccc(-c6cccnc6)nc45)cc23)c1 [Compound 4] , can you help?
## Result 427

## Task Field request: EC50 | item: O=C(Nc1cncc(-c2ccc3[nH]nc(-c4cc5c(-c6ccc(F)cc6)nccc5[nH]4)c3n2)c1)c1ccccc1 [Compound 39]
## Result 302

## Task Give its EC50 value. Item: CC(C)(C)C(=O)Nc1cncc(-c2ccc3[nH]nc(-c4cc5c(-c6cccc(F)c6)nccc5[nH]4)c3n2)c1 [Compound 8]
## Result 1080

## Task Given the molecule CS(=O)(=O)NCc1cc(F)cc(-c2nccc3[nH]c(-c4n[nH]c5ccc(-c6cncc(NC(=O)C7CCCCC7)c6)nc45)cc23)c1 [Compound 499] , what is its reported EC50?
## Result 958

## Task Dear colleague, I am looking for the recorded EC50 of the following molecule: Oc1cncc(-c2ccc3[nH]nc(-c4cc5c(-c6cccs6)nccc5[nH]4)c3n2)c1 [Compound 709]
## Result 34

## Task What EC50 value was documented for this molecule, Cc1ncc(-c2ccc3[nH]nc(-c4cc5c(-c6ccncc6)nccc5[nH]4)c3n2)n1C [Compound 573] ?
## Result 73

## Task Using the record for Cc1ccncc1-c1ccc2[nH]nc(-c3cc4c(-c5cccs5)nccc4[nH]3)c2n1 [Compound 341] , report its EC50.
## Result 621

## Task Which EC50 value is on record for O=C(CC1CCNCC1)Nc1cncc(-c2ccc3[nH]nc(-c4cc5c(N6CCCCC6)nccc5[nH]4)c3n2)c1 [Compound 609] ?
## Result 1080

---

# Tested on: SW480 colon cancer cells
# Test Summary: Cell viability assay (CellTiter-Blue) in SW480 colon cancer cells
# Format: cell-based
# Details: Homo sapiens, 96 h, four days, CellTiter-Blue
pEC50: −log10 of the molar value.
Assay Readout: pEC50

Guide cases for pEC50, answers given:
Compound: c1csc(-c2nccc3[nH]c(-c4n[nH]c5ccc(-c6cncnc6)nc45)cc23)c1 [Compound 363]
pEC50: 5.82

Compound: Fc1ccc(-c2nccc3[nH]c(-c4n[nH]c5ccc(-c6cncc(OC7CCNCC7)c6)nc45)cc23)cc1 [Compound 528]
pEC50: 5.28

Compound: c1ccc(-c2ccc3[nH]nc(-c4cc5c(N6CCCCC6)nccc5[nH]4)c3n2)nc1 [Compound 196]
pEC50: 5.55

I = CS(=O)(=O)NCc1cc(F)cc(-c2nccc3[nH]c(-c4n[nH]c5ccc(-c6cncc(NC(=O)C7CCCCC7)c6)nc45)cc23)c1 [Compound 499]
II = c1cc2[nH]c(-c3n[nH]c4ccc(-c5cncc(OC6CCCCC6)c5)nc34)cc2c(N2CCCCC2)n1 [Compound 607]
## Task Looking at recorded values for pEC50, does I or II come in lower? # respond with the chosen item's label
## Result I
(I: 5.85, II: 6.52)

---

# Tested on: Wnt activity (Sp5-Luc reporter, SW480 colon carcinoma cells)
# Test Summary: Sp5-Luc reporter gene screening assay for Wnt activity in SW480 cells
# Type: cell-based
# Details: Homo sapiens, given for EC50 >10 μM, 10 μM, read-out: percent inhibition at 10 μM
Assay Readout: inhibition at 10 µM (%)
Kindly answer with a numeric value in %, unit omitted.

Molecule: Fc1ccccc1-c1nccc2[nH]c(-c3n[nH]c4ccc(-c5cncnc5)nc34)cc12 [Compound 83]
Unit Text: %
inhibition at 10 µM: 2.1

## Task Give its inhibition at 10 µM value. Item: CCCCC(=O)Nc1cncc(-c2ccc3[nH]nc(-c4cc5c(N6CCCCC6)nccc5[nH]4)c3n2)c1 [Compound 187]
## Result 42.2

## Task // inhibition at 10 µM lookup, key: CN1CCN(c2nccc3[nH]c(-c4n[nH]c5ccc(-c6cncc(NC(=O)CC7CCNCC7)c6)nc45)cc23)CC1 [Compound 641]
## Result 2.1

## Task Query (molecule): O=C(CC1CCNCC1)Nc1cncc(-c2ccc3[nH]nc(-c4cc5c(N6CCCCC6)nccc5[nH]4)c3n2)c1 [Compound 609] ; field requested: inhibition at 10 µM
## Result 13.3

## Task Sample CN1CCN(c2nccc3[nH]c(-c4n[nH]c5ccc(-c6cncc(NC(=O)c7ccccc7)c6)nc45)cc23)CC1 [Compound 235] — what was its inhibition at 10 µM?
## Result 49.1

## Task Bench note: what inhibition at 10 µM did Cc1ccncc1-c1ccc2[nH]nc(-c3cc4c(-c5ccc(F)cc5)nccc4[nH]3)c2n1 [Compound 33] show?
## Result 37.3

## Task Please look up its inhibition at 10 µM: c1csc(-c2nccc3[nH]c(-c4n[nH]c5ccc(-c6ccncc6)nc45)cc23)c1 [Compound 354]
## Result 33.6

## Task Fill in: inhibition at 10 µM of CS(=O)(=O)NCc1cc(F)cc(-c2nccc3[nH]c(-c4n[nH]c5ccc(-c6cncc(NC(=O)Cc7ccccc7)c6)nc45)cc23)c1 [Compound 486] is ___
## Result 19.3
